All figures here come from patent US20230167073A1.

# tested on: Human TRPC6 (Homo sapiens, UniProt Q9Y210)
# Construct: expressed in transfected cells
# Sequence (Q9Y210 whole entry): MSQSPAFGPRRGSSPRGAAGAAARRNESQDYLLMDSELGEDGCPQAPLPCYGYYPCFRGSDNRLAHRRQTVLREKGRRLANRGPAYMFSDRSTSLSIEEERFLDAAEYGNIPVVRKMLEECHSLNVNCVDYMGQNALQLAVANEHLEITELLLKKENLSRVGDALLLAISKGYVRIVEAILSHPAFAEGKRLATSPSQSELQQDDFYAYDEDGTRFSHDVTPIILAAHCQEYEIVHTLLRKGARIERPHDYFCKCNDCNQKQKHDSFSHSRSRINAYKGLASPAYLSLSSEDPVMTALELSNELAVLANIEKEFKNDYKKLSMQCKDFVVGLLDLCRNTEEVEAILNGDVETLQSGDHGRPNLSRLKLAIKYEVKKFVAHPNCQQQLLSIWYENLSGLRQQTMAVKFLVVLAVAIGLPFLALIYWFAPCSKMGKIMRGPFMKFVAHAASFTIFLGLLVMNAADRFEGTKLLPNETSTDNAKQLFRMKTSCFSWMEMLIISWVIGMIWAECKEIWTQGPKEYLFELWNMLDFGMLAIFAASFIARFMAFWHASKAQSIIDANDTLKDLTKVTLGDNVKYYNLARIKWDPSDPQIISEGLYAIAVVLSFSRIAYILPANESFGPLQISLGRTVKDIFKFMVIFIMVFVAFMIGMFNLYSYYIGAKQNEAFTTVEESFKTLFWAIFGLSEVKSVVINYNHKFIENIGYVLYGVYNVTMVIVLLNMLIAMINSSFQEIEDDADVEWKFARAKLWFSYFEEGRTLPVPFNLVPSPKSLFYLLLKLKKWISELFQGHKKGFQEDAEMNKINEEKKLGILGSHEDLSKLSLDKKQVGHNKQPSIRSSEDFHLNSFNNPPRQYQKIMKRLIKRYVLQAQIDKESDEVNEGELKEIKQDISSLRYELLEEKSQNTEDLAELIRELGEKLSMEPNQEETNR
# procedure summary: Evaluation of TRPC6 channel inhibitory activity (1), FLIPR Calcium 5 Assay Kit, OAG stimulation (Compound Nos. 1-1293)
# Format: cell-based
# reported conditions: Human TRPC6 stably-expressing cells, OAG 30 μM, FLIPR Calcium 5 Assay Kit; read-out: Inhibitory activity (pIC50 class) (converted)
Kindly supply the reported IC50 values for the records listed here.

Worked cases, IC50 given:
CCc1cc(C(=O)c2cc(C#N)ccc2-c2ncc(CCN)cn2)n(C)n1	< 10 nM
Cn1nc(N2CCOCC2)cc1C(=O)c1cc(F)ccc1-c1ccc(CCN)cn1	< 10 nM
Cn1nc(C2CC2)cc1Oc1nc(C#N)ccc1-c1ncc(CCN)cn1	10 to 1000 nM
Cn1nc(C(C)(C)C)cc1Oc1cc(C#N)ccc1-c1ncc([C@H](O)CN)cn1	< 10 nM
Cc1nc(Oc2cc(C#N)ccc2-c2ccc(CCN)cc2)cc(OC2CCCC2)n1	10 to 1000 nM
Cc1cnc(N2CCOCC2)cc1Oc1cc(C#N)ccc1-c1ncc(CN)cn1	> 1000 nM

Return reported IC50 values for all items listed beneath this line.
1. N#Cc1ccc(-c2ncc(CN)cn2)c(Cn2ncc(-c3ccccc3)n2)c1
2. CC(C)Nc1cc(Oc2cc(C#N)ccc2-c2ccc(CCN)cn2)n(C)n1

### Response
1: > 1000 nM; 2: < 10 nM
